Exercise: state measured GI50 for each of the molecules provided.
- Tested on: OVCAR-3
- assay: NCI tumour cell line growth inhibition, 48 h
Activity calls are given as the source filed them. Cut-off read from the data, not from the text of the source: active = GI50 up to about 1.1 µM and inactive = higher.

Answered examples (4):
| molecule | GI50 |
| --- | --- |
| Fc1cccc(F)c1C1SCc2nc3ccc(Cl)cc3n21 (stereo unspecified) | > 100 µM (inactive) |
| C/C(CC(=O)NCCc1ccccc1)=N\NS(=O)(=O)c1ccc(C)cc1 | > 100 µM (inactive) |
| O=S(=O)(O)C(c1ccccc1)C(O)c1ccccc1 (stereo unspecified) | > 100 µM (inactive) |
| Oc1c(Cl)ccc2cccnc12 | 2.09 µM (inactive) |

Below are 2 molecules. Give each one its GI50.
1. Cc1ccc(S(=O)(=O)NNC2Oc3cc4c(cc3C(c3ccccc3O)C2C)OCO4)cc1 (stereo unspecified)
2. CS/C(=N/C(=O)c1ccccc1)SCCS/C(=N\C(=O)c1ccccc1)SC

1: 11.4 µM (inactive); 2: 68.5 µM (inactive)
